Documented pIC50 across a set of molecules
target: 5-HT2A receptors (Homo sapiens); assay: Intracellular Ca2+ release
Sequence (P28223 whole entry): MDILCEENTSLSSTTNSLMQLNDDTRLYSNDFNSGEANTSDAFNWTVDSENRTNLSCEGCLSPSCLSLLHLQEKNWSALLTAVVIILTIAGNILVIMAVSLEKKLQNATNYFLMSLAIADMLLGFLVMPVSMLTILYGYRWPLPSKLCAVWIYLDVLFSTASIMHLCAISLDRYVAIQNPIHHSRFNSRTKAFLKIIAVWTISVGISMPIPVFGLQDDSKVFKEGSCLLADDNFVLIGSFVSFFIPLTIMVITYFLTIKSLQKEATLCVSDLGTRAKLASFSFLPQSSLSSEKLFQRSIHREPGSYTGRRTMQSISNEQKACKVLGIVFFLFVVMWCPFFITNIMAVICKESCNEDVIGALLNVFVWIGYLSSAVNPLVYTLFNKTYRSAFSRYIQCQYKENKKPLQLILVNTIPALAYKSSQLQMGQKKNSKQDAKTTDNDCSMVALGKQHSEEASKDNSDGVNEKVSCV
pIC50: −log10 of the molar value.

>  <Molecule>
CN1CCC(c2noc3cc(F)ccc23)CC1.Cl [compound 4]

>  <Test Target>
5-HT2A receptors (Homo sapiens)

>  <pIC50>
5.13

$$$$
>  <Molecule>
Fc1ccc2c(C3CCNCC3)noc2c1 [compound 5, 6-fluoro-3-(piperidin-4-yl)benzisoxazole]

>  <Test Target>
5-HT2A receptors (Homo sapiens)

>  <pIC50>
4.70

$$$$
>  <Molecule>
Cl.O=C(CCCN1CCC(c2noc3cc(F)ccc23)CC1)N1CCCCC1 [compound 2]

>  <Test Target>
5-HT2A receptors (Homo sapiens)

>  <pIC50>
4.78

$$$$
